The following molecules are shown together with reported Inhibition values.
Test system: Plasmodium falciparum
methodSummary: GSK_TCMDC: Inhibition of Plasmodium falciparum 3D7 in whole red blood cells, using parasite LDH activity as an index of growth. Test compounds present at 2uM
Assay type: functional
# unit: % | format: bare number

See these solved cases before continuing.
- molecule: "NC(=O)c1cnc2ccc(-c3cncs3)cc2c1Nc1ccc(F)c(Cl)c1"
  Inhibition, %: 97
- molecule: "CNC(=O)c1cc(S(=O)(=O)N2CCN(c3ccccn3)CC2)cs1"
  Inhibition, %: 99
- molecule: "Cc1nc2nc(N)nc(N)c2c(C)c1Cc1c(Cl)cccc1Cl.Cl"
  Inhibition, %: 94
- molecule: "CC(C)(C(=O)Nc1ccc(C2CCC(NCC3CC3)CC2)c(Cl)c1)c1cccc(OC(F)F)c1 (centres undefined)"
  Inhibition, %: 99
- molecule: "O=C(/C=C/c1ccc(Cl)c(Cl)c1)NCCCCCN1CCC(NC(=O)c2ccc(F)c(F)c2)CC1"
  Inhibition, %: 99
- molecule: "CCc1cc2c3c(N)nc(N)nc3ccc2n1CC"
  Inhibition, %: 93
- molecule: "CC(C)CCN1CCC(Oc2ccc(NC(=O)c3ccco3)cc2Cl)CC1.O=C(O)C(F)(F)F"
  Inhibition, %: 95
- molecule: "CC1CN(Cc2ccccc2)CCN1c1ccc(NC(=O)c2cccs2)cc1.O=C(O)C(F)(F)F (centres undefined)"
  Inhibition, %: 96
- molecule: "CC(=O)c1ccc(NC(=O)Nc2ccc(N(C)c3ccnc(Nc4cccc(CS(C)(=O)=O)c4)n3)cc2)cc1"
  Inhibition, %: 100
- molecule: "CCOc1ccc(C2CCN(CCN3CCC(NC(=O)c4ccc(-c5ccc(C(F)(F)F)cc5)cc4)CC3)CC2)c(OCC2CC2)c1"
  Inhibition, %: 99

Data request, read-out Inhibition, for `COc1cc(NC(=O)CCCCCCCN2CCN(C)CC2)c2ncccc2c1`
95

Looking for the measured Inhibition of `COc1ccc(CNC2CCN(C)CC2)cc1-c1cccc(S(=O)(=O)NCc2ccccc2)c1.O=C(O)C(F)(F)F` , can you help?
100

Record request: Inhibition value, item `O=C(Nc1cccc(-c2cccc(CN3CCCC3)c2)c1)c1cccc(Cl)c1.O=C(O)C(F)(F)F`
89

// lookup Inhibition for `c1ccn2c(Sc3ncnc4sccc34)ncc2c1`
100

What value of measured Inhibition is listed for `COc1cc2nc(NCCC(C)C)n3nc(-c4ccccc4)nc3c2cc1OC` ?
94

What does the record list as Inhibition for `O=C(/C=C/c1ccc([N+](=O)[O-])cc1)N1CCC(CCN2CCC(c3c[nH]c4ccccc34)CC2)CC1` ?
100

Which Inhibition is listed for `COc1ccc(NC(=O)c2ccc(-c3nc(-c4ccccc4)cs3)cc2)cc1N1CCN(C)CC1.O=C(O)C(=O)O` ?
93

What value of Inhibition has been recorded for this entry: `Oc1ccccc1N1CCN(c2ccc(-c3nc4ccccc4[nH]3)cn2)CC1`
97

What value of measured Inhibition is listed for COc1ccc(C2NCCc3c2[nH]c2ccccc32)cc1CN1CCN(c2ccc(F)cc2)CC1.Cl (centres undefined) ?
97

* * *

Test system: Plasmodium falciparum
methodSummary: GSK_TCMDC: Inhibition of Plasmodium falciparum 3D7 in whole red blood cells, using parasite LDH activity as an index of growth. Test compounds present at 2uM
Type: functional
As shown below, each of these compounds has a reported Inhibition value.
Numbers only here, please. The scale is %.

Examples from the recorded data:
- compound: "CCOc1c(OC)ccc2c1CCN(CCN1CCC(NC(=O)c3ccc(-c4cccc(C(F)(F)F)c4C(F)(F)F)cc3)CC1)C2"
  reportedMetric: "Inhibition"
  quantitativeResult: 100
- compound: "COc1ccc(C(C(=O)NC2CCN(C[C@H](O)c3ccnc4ccc(OC)cc34)CC2)N2CCN(Cc3ccccc3)CC2)cc1 (stereo not given in full)"
  reportedMetric: "Inhibition"
  quantitativeResult: 100
- compound: "O=c1c(NCCCN(Cc2ccc(F)cc2)c2ccccn2)c(NCc2ccncc2)c1=O"
  reportedMetric: "Inhibition"
  quantitativeResult: 100

What value of Inhibition has been reported for the following compound? `CCc1ccc(NC(=O)c2ccc(CN3CCCN(Cc4cccc(C)c4)CC3)cc2)cc1.O=C(O)C(F)(F)F`
80

Which Inhibition reading was recorded for the compound `Cc1cc(NCCc2ccccc2)nc(NC(=N)Nc2cccc(Cl)c2)n1` ?
100

* * *

Test system: HepG2
methodSummary: GSK_TCMDC: Percent inhibition of human HepG2 cell line. Test compounds present at 10uM.
Assay type: functional
Rule: measured Inhibition below 20% gets yes; anything equal to or greater than 20% gets no.

Reference set, count: 2
- molecule: "O=C(/C=C/c1ccc(Cl)c(Cl)c1)NCCCCCN1CCC(NC(=O)c2ccc3ccccc3c2)CC1"
  classLabel: "yes"
- molecule: "CN1CCN(c2nc(NCCc3ccc(O)cc3)nc(NCc3ccccc3-c3ccc(C(F)(F)F)cc3)n2)CC1"
  classLabel: "no"

Dear colleague, could you confirm whether Inhibition of Cc1cc(C(=O)CN2C(=O)NC3(CCOc4ccccc43)C2=O)c(C)n1Cc1ccc(F)cc1 (stereo not drawn) falls below 20%? Thanks.
yes

Does CCCCOC(=O)C1=C(C)NC2=C(C(=O)CC(c3ccc(OC)c(OC)c3)C2)C1c1ccc(O)cc1 (stereo not drawn) have Inhibition strictly under 20%?
yes

State whether 20% exceeds Inhibition recorded for `COc1ccc2nccc([C@@H](O)CN3CCC(NCc4cc5cccc(OC)c5o4)CC3)c2c1.O=C(O)C(=O)O` .
yes

Inhibition strictly < 20% for this molecule? `COc1ccc(-c2ccc(NC(=O)c3cccc(Cl)c3)cc2)cc1CN1CCC(O)CC1.O=C(O)C(F)(F)F`
yes

API: query returns whether the molecule falls strictly under 20% in Inhibition. Query: `O=C(NC1CC1)c1cnc(N2CCN(Cc3c(F)cccc3Cl)CC2)c(Cl)c1.O=C(O)C(F)(F)F`
yes

Lab note: confirm whether the reported Inhibition for this molecule is below 20%, equality not counting. molecule: `CN1CCN(CC(=O)Nc2ccc(-c3ccc(-c4nc5cc(C(F)(F)F)ccc5[nH]4)cc3)cc2)CC1`
no

* * *

Test system: Plasmodium falciparum
methodSummary: GSK_TCMDC: Inhibition of Plasmodium falciparum Dd2 in whole red blood cells, using parasite LDH activity as an index of growth. Test compounds present at 2uM
Assay type: functional
reportedMetric: Inhibition (%)
Report the figure in % without appending any unit label.

Worked cases, answers included:
- compound: "CC(C)(C)CC(=O)Nc1ccc(Nc2cc(-c3ccncc3)cc3ncc(C(N)=O)cc23)cc1"
  Inhibition (%): 85
- compound: "CCC(C)CN1CCN(c2cc(NC(=O)c3cccs3)ccn2)C(C)C1.O=C(O)C(F)(F)F (stereo not given)"
  Inhibition (%): 72

Look up Inhibition: `Cc1c(-c2cccc(Br)c2)[nH]c2nc(N)nc(N)c12`
61

Consider the compound `O=C(Nc1cccc(-c2cccc(-c3nc4cc(F)ccc4[nH]3)c2)c1)c1c[nH]cn1` and give its measured Inhibition.
87

For `CCCCNC(=N)c1ccc(OCCCCCOc2ccc(C(=N)NCCCC)cc2)cc1.Cl` , what is its reported Inhibition?
99

* * *

Test system: HepG2
methodSummary: GSK_TCMDC: Percent inhibition of human HepG2 cell line. Test compounds present at 10uM.
Format: functional
Label fulfilled when Inhibition is at or above 30%; anything below gets not fulfilled.

Before answering, review these 5 worked examples.
- compound: "CCn1c(-c2nonc2N)nc2c(-c3cccc(NC(=O)Nc4cccc(C#N)c4)c3)ncc(OCCCN)c21.O=C(O)C(F)(F)F"
  classLabel: "fulfilled"
- compound: "Cl.N#Cc1ccc2c(c1)CCN(CCC1CCC(NC(=O)/C=C/c3cc(Br)cs3)CC1)CC2 (configuration not stated)"
  classLabel: "not fulfilled"
- compound: "COc1c(C2CCN(CCCCNC(=O)c3ccc(-c4ccc(C(=O)C(F)(F)F)cc4)cc3)CC2)ccc2c1CCCC2"
  classLabel: "fulfilled"
- compound: "CN1CCN(c2cc3c(cc2Cl)CCN3C(=O)Cc2ccc(Cl)c(NC(=O)Nc3cccc([N+](=O)[O-])c3)c2)CC1"
  classLabel: "not fulfilled"
- compound: "COc1ccc2nccc([C@@H](O)CN3CCC(NCCOc4ccc(F)cc4F)CC3)c2c1.O=C(O)C(=O)O"
  classLabel: "not fulfilled"

Given `CCOC(=O)c1ccc(NC(=O)Nc2cccc(-c3ccc(-c4nc5ccccc5[nH]4)cc3)c2)cc1` , state whether its Inhibition is at least 30%.
fulfilled

Please tell me: is the compound `CCN(CC)CCN(Cc1ccc(-c2ccc(C(F)(F)F)cc2)cc1)C(=O)Cn1c(CCc2ccccc2F)nc(=O)c2ccccc21.O=C(O)C(O)C(O)C(=O)O` at or over 30% in terms of Inhibition?
fulfilled

Test whether the compound `O=C(NC1CCN(c2ncc(C(F)(F)F)cc2Cl)CC1)c1cccs1` records Inhibition of 30% or higher.
not fulfilled

* * *

System: Plasmodium falciparum
methodSummary: GSK_TCMDC: Inhibition of Plasmodium falciparum 3D7 in whole red blood cells, using parasite LDH activity as an index of growth. Test compounds present at 2uM
Type: functional
# Lookup of reported Inhibition keyed by entry
Write down the numeric answer in % and omit the unit.

Past entries and their recorded results:
- molecule: "S=C(NCCN1CCOCC1)Nc1ccccc1"
  Inhibition (%): 94
- molecule: "FC(F)(F)c1ccc2[nH]c(-c3cccc(-c4cccc(CNCc5cnn(-c6ccccc6)n5)c4)c3)nc2c1.O=C(O)C(F)(F)F"
  Inhibition (%): 100
- molecule: "COc1cc(-c2nc(-c3ccc([N+](=O)[O-])cc3)c(-c3ccccc3)[nH]2)cc(OC)c1O"
  Inhibition (%): 98
- molecule: "CCOc1ncccc1CN1CCC(N2CCc3cc(NC(=O)c4ccco4)ccc32)C1 (centres undefined)"
  Inhibition (%): 90
- molecule: "O=C(Nc1cccc(-c2cccc(-c3nc4cc(C(F)(F)F)ccc4[nH]3)c2)c1)c1cccnc1"
  Inhibition (%): 100
- molecule: "C[C@H](NC(=O)c1c(CN2CCC(N3CCCCC3)CC2)c(-c2ccccc2)nc2cc(O)ccc12)C1CCCCC1"
  Inhibition (%): 99
- molecule: "CC(Sc1nc(-c2ccccc2)c(-c2ccccc2)o1)C(=O)NC1CC1 (centres undefined)"
  Inhibition (%): 94
- molecule: "CCCC1(NC[C@@H](O)[C@H](Cc2ccccc2)NC(=O)c2cc(NCC)cc(N3CCCCS3(=O)=O)c2)CCC1.Cl"
  Inhibition (%): 100
- molecule: "Oc1cccc(CNCCCN(Cc2ccccc2)c2ccccc2)c1"
  Inhibition (%): 99
- molecule: "COc1ccc(CNC(=O)NC2CCN(c3ccnc(Nc4cc(OC)c(OC)c(OC)c4)n3)C2)cc1 (centres undefined)"
  Inhibition (%): 91

Moving on to the next molecule.
Item `CCOc1cccc2nc(NCCCNCc3ccc(Cl)c(Cl)c3)cc(NCCCNCc3ccc(Cl)c(Cl)c3)c12` with Plasmodium falciparum - Inhibition?
98

Origin of values: ChEMBL document CHEMBL1157539
